Below is a list of entries, each paired with its recorded TGI value.
- Test system: SW-620 colon
- Assay Explanation: NCI tumour cell line growth inhibition, 48 h

Below: 4 molecules and their reported TGI.
{"columns": ["Molecule", "TGI"],
 "data": [
  ["COc1cccc(CN(C(=O)/C=C\\Sc2ccccc2)C(C)(C)C)c1", "> 100 µM"],
  ["O=C(O)[C@@H]1CCCC[C@@H]1C(=O)N(C1CCCCC1)C1CCCCC1", "> 100 µM"],
  ["COc1ccc(NC(=O)c2sc3nc4c(cc3c2N)CCCC4)cc1", "> 100 µM"],
  ["CCN1C(=O)CS/C1=N/NC(=O)C(O)(c1ccccc1)C1C=CC=CC1 (stereo not given)", "> 10 µM"]
]}

Continue with the next molecule.
Per the records, this molecule ( CC[C@@]1(O)C(=O)OCc2c1cc1n(c2=O)Cc2cc3c(N)cccc3nc2-1 ) has TGI equal to 16.3 µM

====

- Test system: UACC-62 melanoma
- Assay Explanation: NCI tumour cell line growth inhibition, 48 h
Value Kind: TGI (µM)
Write it as a number; the unit µM goes unstated.

{"columns": ["Molecule", "Assayed Target", "TGI, µM"],
 "data": [
  ["COc1ccc(/C=C/C(=O)C(C)(C)Br)cc1", "UACC-62 melanoma", 27.1],
  ["CCN(CC)CCOc1ccc(/C=C2\\CC3C4CC=C5C[C@@H](OC(C)=O)CC[C@]5(C)C4CC[C@]3(C)C2=O)cc1OC (stereo not given in full)", "UACC-62 melanoma", 4.09],
  ["Cc1n(Cc2ccc3ccccc3c2)c(Cl)c(Cl)[n+]1Cc1ccc2ccccc2c1", "UACC-62 melanoma", 2.74]
]}

Consider C[C@@H]1C/C=C\C(=O)O[C@H](/C=C/C#C/C=C/C(C)(C)[C@@H](O)c2cccc(O)c2Br)[C@@H](C)/C=C/[C@H](C)C[C@H](OC(N)=O)C1 . Its measured TGI is 0.0656

Noted for COC(=O)CC(NC(=O)OCc1ccccc1)C(C(=O)OCc1ccccc1)C1(C)OCCO1 (stereo not given) : its TGI reads 59.7

Quick note, TGI for COC(=O)n1c(C[P+](c2ccccc2)(c2ccccc2)c2ccccc2)cc2ccccc21 landed at 16.3

Just so you know, measured TGI for CC(=O)O[C@H]1C(=O)N(c2cc3c4ccccc4ccc3c3ccccc23)[C@@H]1c1ccccc1 came out at 24

For reference, reported TGI for Cc1c2cccc-2ccc2c1[nH]c1ccccc12 stands at 3.79

====

- System: HCT-116 colon
- Assay Explanation: NCI tumour cell line growth inhibition, 48 h
Value Kind: TGI (µM)
Use µM as the unit, but write only the number.

Use the examples below as a reference point.
{"columns": ["Cpd Smiles", "Assayed Target", "Unit Spec", "TGI"],
 "data": [
  ["Nc1ncnc2c1c(-c1ccc(Oc3ccccc3)cc1)nn2C[C@@H]1SSC[C@@H]1O", "HCT-116 colon", "µM", 1.64],
  ["O=C1C=C(N2CCN(c3ccccn3)CC2)C(=O)c2c(O)ccc(O)c21", "HCT-116 colon", "µM", 10.3]
]}

// below: TGI requested for another compound
Per the record, O=S1(=O)OCCOS(=O)(=O)C1Cc1nc2ccccc2[nH]1 has TGI of 57

====

Recorded TGI values for a group of molecules are listed next.
- System: MOLT-4 leukemia
- Assay Explanation: NCI tumour cell line growth inhibition, 48 h

{"columns": ["Molecule", "Value Kind", "Value Reported"],
 "data": [
  ["Cn1c(=O)sc2cc(C(=S)N3CCOCC3)ccc21", "TGI", "> 100 µM"]
]}

TGI reading for C/C(=N\n1c(N)c(C#N)c(-c2ccc(Cl)cc2)c(C#N)c1=O)c1ccncc1 : > 100 µM

Entry c1ccc(NC[Si]23OCCN(CCO2)CCO3)cc1 ; TGI = > 100 µM

====

- Test system: HCT-116 colon
- Assay Explanation: NCI tumour cell line growth inhibition, 48 h
Value Kind: TGI

{"columns": ["Compound", "TGI"],
 "data": [
  ["COc1ccc(C=Nc2ccc(-c3nc4ccccc4[nH]3)cc2)cc1OC", "> 100 µM"]
]}

TGI reading for C/C(=N\Nc1ccccc1)C(CN(C)C)C(c1ccccc1)c1c(O)c2ccccc2oc1=O (stereo not drawn) : > 100 µM

Item: COc1nc2c(c(O)c(C)c(=O)n2OC2OC(COC(C)=O)C(OC(C)=O)C(OC(C)=O)C2OC(C)=O)c(=O)n1C (stereo not drawn) | TGI: > 100 µM

====

- System: MOLT-4 leukemia
- Assay Explanation: NCI tumour cell line growth inhibition, 48 h
Value Kind: TGI

Solved entries (count: 3):
{"columns": ["Compound", "TGI"],
 "data": [
  ["O=[N+]([O-])/C=C/c1cn(CCCCCn2cc(/C=C/[N+](=O)[O-])c3ccccc32)c2ccccc12", "> 20.4 µM"],
  ["CCCCCCOP(=O)(OCCCCCC)OC(C(=O)OC)C(F)(F)F (configuration not stated)", "> 100 µM"],
  ["Fc1cc(-c2nnc3n2N=C(c2ccc(Cl)cc2Cl)CS3)c(Cl)cc1Cl", "> 100 µM"]
]}

The measured TGI associated with Cc1cc2n([O-])cccc-2[n+](=O)c1 reads > 100 µM

Looking up Cc1ccc(S(=O)(=O)N/N=C2\C3CC4CC(C3)C2C4)cc1 (configuration not stated) , I see its TGI listed as > 100 µM

Lab note: NC(=O)c1cc(I)ccc1NC(=O)COc1ccccc1 gave TGI of > 78.4 µM

Per the records, this compound ( CC(C)=CCC[C@@H](C)c1c2[nH]c3ccccc3sc-2c(C)c(=O)c1=O ) has TGI equal to > 75 µM
